# Test system: RO82-W-1 (Thyroid Gland Carcinoma);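 also: after 72 h of two-drug dosing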
# measurementDescription: Bliss excess, mean over the matrix (fraction); higher = more synergy
endpoint: Bliss excess
Numbers only.

Example results:
compound	readoutValue
Cn1cnc2c(F)c(Nc3ccc(Br)cc3Cl)c(C(=O)NOCCO)cc21 [Selumetinib] + CC(C)n1c(=O)n(C)c2cnc3cc(F)c(-c4ccc(OCCCN5CCCCC5)nc4)cc3c21 [AZD1390] (first compound max 10 µM, 7x7, partner max 0.3 µM)	-0.034
C=CCn1c(=O)c2cnc(Nc3ccc(N4CCN(C)CC4)cc3)nc2n1-c1cccc(C(C)(C)O)n1 [AZD1775] + CCc1c2c(nc3ccc(O)cc13)-c1cc3c(c(=O)n1C2)COC(=O)[C@]3(O)CC [SN-38] (first compound max 1 µM, partner max 0.3 µM)	-0.0352

# value lookup — system RO82-W-1 (Thyroid Gland Carcinoma), readout Bliss excess, item CC1(C)CCC(CN2CCN(c3ccc(C(=O)NS(=O)(=O)c4ccc(NCC5CCOCC5)c([N+](=O)[O-])c4)c(Oc4cnc5[nH]ccc5c4)c3)CC2)=C(c2ccc(Cl)cc2)C1 [Venetoclax] + C=CCn1c(=O)c2cnc(Nc3ccc(N4CCN(C)CC4)cc3)nc2n1-c1cccc(C(C)(C)O)n1 [AZD1775] (first compound max 1 µM, partner max 1 µM) -0.0757

---

# Tested on: CaR-1 (Colorectal Carcinoma)
# measurementDescription: combination Emax (second highest fraction inhibited in the dose matrix, 72 h); higher = more inhibition; extreme values may be limits of the assay
Give measured combination Emax for each item. Keep answers brief.
Give bare numbers.

Example results:
molecule	assaySystem	combination Emax
Cc1cc2ncnn2cc1Nc1ncc2c(n1)n(C1CCOCC1)c(=O)n2C [AZD7648] + CCN(CCO)CCCOc1ccc2c(Nc3cc(CC(=O)Nc4cccc(F)c4)[nH]n3)ncnc2c1 [AZD2811] (first compound max 10 µM, 7x7, partner max 1 µM)	CaR-1 (Colorectal Carcinoma)	0.472
CC1(C)CCC(CN2CCN(c3ccc(C(=O)NS(=O)(=O)c4ccc(NCC5CCOCC5)c([N+](=O)[O-])c4)c(Oc4cnc5[nH]ccc5c4)c3)CC2)=C(c2ccc(Cl)cc2)C1 [Venetoclax] + CS(=O)(=O)CCNCc1ccc(-c2ccc3ncnc(Nc4ccc(OCc5cccc(F)c5)c(Cl)c4)c3c2)o1 [Lapatinib] (first compound max 1 µM, 7x7, partner max 10 µM)	CaR-1 (Colorectal Carcinoma)	0.308
CC1(C)CCC(CN2CCN(c3ccc(C(=O)NS(=O)(=O)c4ccc(NCC5CCOCC5)c([N+](=O)[O-])c4)c(Oc4cnc5[nH]ccc5c4)c3)CC2)=C(c2ccc(Cl)cc2)C1 [Venetoclax] + CCN(CCO)CCCOc1ccc2c(Nc3cc(CC(=O)Nc4cccc(F)c4)[nH]n3)ncnc2c1 [AZD2811] (first compound max 1 µM, 7x7, partner max 1 µM)	CaR-1 (Colorectal Carcinoma)	0.282

Provide reported combination Emax for each item, in the same order as listed.
1. C[C@@H](Nc1cc(F)cc(F)c1)c1cc(C(=O)N(C)C)cc2c(=O)cc(N3CCOCC3)oc12 [AZD8186] + CC(=O)c1c(C)c2cnc(Nc3ccc(N4CCNCC4)cn3)nc2n(C2CCCC2)c1=O [Palbociclib] (first compound max 10 µM, 7x7, partner max 10 µM)
2. CN(CCO)CC[C@H](CSc1ccccc1)Nc1ccc(S(=O)(=O)NC(=O)c2ccc(N3CCC([C@@H](O)c4ccccc4-c4ccc(Cl)cc4)CC3)cc2)cc1S(=O)(=O)C(F)(F)F [AZD4320] + C=CCn1c(=O)c2cnc(Nc3ccc(N4CCN(C)CC4)cc3)nc2n1-c1cccc(C(C)(C)O)n1 [AZD1775] (first compound max 1 µM, partner max 1 µM)

1: 0.471; 2: 0.241
